Cited source: ChEMBL document CHEMBL1140657

- assayed.system: Mast/stem cell growth factor receptor Kit (Homo sapiens)
- Sequence (P10721 whole entry): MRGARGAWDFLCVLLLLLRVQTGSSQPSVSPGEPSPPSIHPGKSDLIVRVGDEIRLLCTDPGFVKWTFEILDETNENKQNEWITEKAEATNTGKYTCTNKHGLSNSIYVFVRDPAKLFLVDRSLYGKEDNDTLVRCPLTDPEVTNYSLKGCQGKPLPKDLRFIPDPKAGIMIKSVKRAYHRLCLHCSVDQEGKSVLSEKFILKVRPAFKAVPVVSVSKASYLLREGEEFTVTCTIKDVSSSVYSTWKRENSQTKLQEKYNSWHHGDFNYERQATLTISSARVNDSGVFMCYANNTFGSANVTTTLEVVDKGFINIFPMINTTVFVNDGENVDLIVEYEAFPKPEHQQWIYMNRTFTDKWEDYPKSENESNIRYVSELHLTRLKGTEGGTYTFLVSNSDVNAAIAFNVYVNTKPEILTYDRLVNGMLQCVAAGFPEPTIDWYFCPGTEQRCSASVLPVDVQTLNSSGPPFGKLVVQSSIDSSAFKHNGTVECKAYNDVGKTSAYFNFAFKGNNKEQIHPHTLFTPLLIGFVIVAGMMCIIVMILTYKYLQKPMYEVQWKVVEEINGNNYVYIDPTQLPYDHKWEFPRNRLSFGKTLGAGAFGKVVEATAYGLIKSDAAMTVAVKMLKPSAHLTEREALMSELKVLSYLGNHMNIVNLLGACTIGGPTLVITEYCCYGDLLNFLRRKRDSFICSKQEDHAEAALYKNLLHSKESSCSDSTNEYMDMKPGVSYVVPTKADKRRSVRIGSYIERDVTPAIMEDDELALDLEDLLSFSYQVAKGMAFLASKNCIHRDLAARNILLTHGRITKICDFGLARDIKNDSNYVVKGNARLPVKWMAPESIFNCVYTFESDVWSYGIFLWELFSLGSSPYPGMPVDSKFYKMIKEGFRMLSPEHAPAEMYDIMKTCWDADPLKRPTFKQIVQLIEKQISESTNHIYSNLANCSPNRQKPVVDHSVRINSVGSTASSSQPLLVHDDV
- test.details: Inhibition of human recombinant cKit by FRET assay
pIC50 values by entry
The read-out pIC50 is expressed as -log10 of concentration in moles per litre.

Please review the following examples before continuing.
smiles.code	value.measured
CCN(CC)CCNC(=O)c1cc(CNc2ccccc2C(=O)Nc2ccc3c(c2)OC(F)(F)O3)ccn1	7.24
O=C(Nc1ccc2c(c1)OC(F)(F)O2)c1ccccc1NCc1ccnc(NCCCn2ccnc2)c1	7.70
O=C(Nc1ccc2c(c1)OC(F)(F)C(F)(F)O2)c1ncsc1NCc1ccncc1	7.02

In plain terms, O=C(Nc1ccc2c(c1)OC(F)(F)O2)c1ccccc1NCc1ccnc(NCCO)c1 has a documented pIC50 of 8.10

* * *

The following are reported pIC50 results, target or system Serine/threonine-protein kinase B-raf (Homo sapiens, UniProt P15056).
The read-out pIC50 is expressed as -log10 of concentration in moles per litre.

Please review the following examples before continuing.
smiles.code	pIC50
O=C(Nc1ccc2c(c1)OC(F)(F)C(F)(F)O2)c1ccccc1NCc1ccncc1	7.40
O=C(NCc1ccccc1)Nc1cc(CNc2ccccc2C(=O)Nc2ccc3c(c2)OC(F)(F)O3)ccn1	6.63
CNC(=O)c1cc(CNc2ccccc2C(=O)Nc2ccc3c(c2)OC(F)(F)O3)ccn1	7.35
COCCCNC(=O)c1cc(CNc2ccccc2C(=O)Nc2ccc3c(c2)OC(F)(F)O3)ccn1	5.99
O=C(Nc1ccc2c(c1)OC(F)(F)O2)c1ccccc1NCc1ccnc(NCCc2cnc[nH]2)c1	6.84

Readout pIC50 for CNC(=O)c1cc(CNc2c(C(=O)Nc3ccc4c(c3)OC(F)(F)O4)cnn2C)ccn1 , test system Serine/threonine-protein kinase B-raf (Homo sapiens, UniProt P15056), was 6.70

Readout pIC50 for O=C(Nc1ccccc1)Nc1cc(CNc2ccccc2C(=O)Nc2ccc3c(c2)OC(F)(F)O3)ccn1 , test system Serine/threonine-protein kinase B-raf (Homo sapiens, UniProt P15056), was 7.41

Readout pIC50 for CS(=O)(=O)CCNC(=O)c1cc(CNc2ccccc2C(=O)Nc2ccc3c(c2)OC(F)(F)O3)ccn1 , test system Serine/threonine-protein kinase B-raf (Homo sapiens, UniProt P15056), was 6.66

* * *

- test.details: Cmax in ICR mouse at 15 mg/kg
- Assay type: ADME, organism-based
- Design: dose 15 mg/kg
- condition.summary: in vivo
metric: Cmax (µM)
The reply should be a number in µM, with the unit left off.

smiles.code	metric	value.unit	value.measured
CNC(=O)Nc1ccc(CNc2c(C(=O)Nc3ccc(SC(F)(F)F)cc3)cnn2C)cn1	Cmax	µM	3.6

Then there is this molecule:
In plain terms, CNC(=O)Nc1ccc(CNc2c(C(=O)Nc3ccc4c(c3)OC(F)(F)C(F)(F)O4)cnn2C)cn1 has a documented Cmax of 6

* * *

AUC values by entry
- test.details: AUC in ICR mouse at 25 mg/kg, po
- Type: ADME, organism-based
- Parameters: dose 25 mg/kg, route oral
- condition.summary: plasma
The reply should be a number in µM·h, with the unit left off.

smiles.code	AUC / µM·h
O=C(Nc1ccc2c(c1)OC(F)(F)C(F)(F)O2)c1ccccc1NCc1ccncc1	6

In plain terms, CNC(=O)c1cc(CNc2ccccc2C(=O)Nc2ccc3c(c2)OC(F)(F)O3)ccn1 has a documented AUC of 40
